Hey, just so you know, these numbers are from ChEMBL document CHEMBL1201862.

Tested on: SK-MEL-2
EXPERIMENT SUMMARY: NCI tumour cell line growth inhibition, 48 h
Active and inactive are the calls of the source. Rule as the data show it: active = GI50 up to about 1.1 µM and inactive = higher.
Reported values of GI50 for individual entries

| COMPOUND | GI50 |
| --- | --- |
| O=c1c2cc(I)ccc2nc(Sc2ncccc2[N+](=O)[O-])n1Cc1ccccc1 | 7.38 µM (inactive) |

stdin: Entry `CCCn1c(SCC)c2cc3cc4ccccc4cc3cc2c1-c1nc(F)nc(F)n1` : reported GI50 = ?
stdout: > 100 µM (inactive)

stdin: Entry N=C(CSS(=O)(=O)O)NC1CC2CCC1C2 (stereo unspecified) : reported GI50 = ?
stdout: > 100 µM (inactive)

stdin: Entry `O=C(c1ccccc1)N1CCC(CC2(c3cc4ccccc4[nH]3)OCCO2)CC1` : reported GI50 = ?
stdout: 30.7 µM (inactive)
